Molecular target: P-glycoprotein (Homo sapiens)
Sequence (P08183 whole entry): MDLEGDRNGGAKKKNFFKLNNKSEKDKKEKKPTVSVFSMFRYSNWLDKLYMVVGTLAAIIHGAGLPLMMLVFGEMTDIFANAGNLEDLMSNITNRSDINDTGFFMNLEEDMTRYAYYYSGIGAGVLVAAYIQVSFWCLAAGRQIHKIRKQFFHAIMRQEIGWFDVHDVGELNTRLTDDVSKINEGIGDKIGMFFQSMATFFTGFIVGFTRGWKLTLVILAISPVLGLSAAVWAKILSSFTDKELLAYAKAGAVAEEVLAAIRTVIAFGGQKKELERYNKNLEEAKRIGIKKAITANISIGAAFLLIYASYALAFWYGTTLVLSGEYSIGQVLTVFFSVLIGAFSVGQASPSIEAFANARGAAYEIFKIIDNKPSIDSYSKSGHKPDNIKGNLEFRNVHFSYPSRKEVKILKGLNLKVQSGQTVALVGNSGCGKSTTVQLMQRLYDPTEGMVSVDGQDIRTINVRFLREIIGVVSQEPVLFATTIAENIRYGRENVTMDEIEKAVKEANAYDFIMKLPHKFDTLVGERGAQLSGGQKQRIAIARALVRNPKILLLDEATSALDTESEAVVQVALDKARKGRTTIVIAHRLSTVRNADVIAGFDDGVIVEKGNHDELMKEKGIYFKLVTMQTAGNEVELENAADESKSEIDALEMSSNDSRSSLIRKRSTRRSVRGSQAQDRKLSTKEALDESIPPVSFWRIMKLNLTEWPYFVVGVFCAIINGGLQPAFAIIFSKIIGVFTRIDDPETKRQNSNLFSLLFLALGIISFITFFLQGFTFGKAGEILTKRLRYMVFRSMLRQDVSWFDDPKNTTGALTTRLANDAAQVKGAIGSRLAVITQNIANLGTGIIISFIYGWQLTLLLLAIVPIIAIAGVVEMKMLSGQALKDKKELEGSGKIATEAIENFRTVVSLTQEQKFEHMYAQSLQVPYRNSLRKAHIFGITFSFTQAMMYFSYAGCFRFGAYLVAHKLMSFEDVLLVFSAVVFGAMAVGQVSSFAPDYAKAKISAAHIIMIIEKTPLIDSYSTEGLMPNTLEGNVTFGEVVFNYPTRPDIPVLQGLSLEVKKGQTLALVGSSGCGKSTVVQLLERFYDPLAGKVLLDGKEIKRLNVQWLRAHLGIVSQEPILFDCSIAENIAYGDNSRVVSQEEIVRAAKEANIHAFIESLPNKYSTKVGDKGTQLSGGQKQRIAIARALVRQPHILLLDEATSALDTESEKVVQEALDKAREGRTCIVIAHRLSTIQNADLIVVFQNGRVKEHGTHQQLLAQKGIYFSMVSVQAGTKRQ
Assay: Rhodamine-123 accumulation kinetics (Lineweaver-Burk) and bidirectional transport in MDCK-hMDR1 cells

structure-notation	Ki [µM]
O=C1c2c(O)cc(O)cc2O[C@H](c2ccc(O)cc2)[C@@H]1[C@@H]1C(=O)c2c(O)cc(O)cc2O[C@H]1c1ccc(O)cc1	45.2
